# Experimental target: Vascular endothelial growth factor receptor 1 (Homo sapiens) (UniProt P17948)
# Sequence (P17948 whole entry): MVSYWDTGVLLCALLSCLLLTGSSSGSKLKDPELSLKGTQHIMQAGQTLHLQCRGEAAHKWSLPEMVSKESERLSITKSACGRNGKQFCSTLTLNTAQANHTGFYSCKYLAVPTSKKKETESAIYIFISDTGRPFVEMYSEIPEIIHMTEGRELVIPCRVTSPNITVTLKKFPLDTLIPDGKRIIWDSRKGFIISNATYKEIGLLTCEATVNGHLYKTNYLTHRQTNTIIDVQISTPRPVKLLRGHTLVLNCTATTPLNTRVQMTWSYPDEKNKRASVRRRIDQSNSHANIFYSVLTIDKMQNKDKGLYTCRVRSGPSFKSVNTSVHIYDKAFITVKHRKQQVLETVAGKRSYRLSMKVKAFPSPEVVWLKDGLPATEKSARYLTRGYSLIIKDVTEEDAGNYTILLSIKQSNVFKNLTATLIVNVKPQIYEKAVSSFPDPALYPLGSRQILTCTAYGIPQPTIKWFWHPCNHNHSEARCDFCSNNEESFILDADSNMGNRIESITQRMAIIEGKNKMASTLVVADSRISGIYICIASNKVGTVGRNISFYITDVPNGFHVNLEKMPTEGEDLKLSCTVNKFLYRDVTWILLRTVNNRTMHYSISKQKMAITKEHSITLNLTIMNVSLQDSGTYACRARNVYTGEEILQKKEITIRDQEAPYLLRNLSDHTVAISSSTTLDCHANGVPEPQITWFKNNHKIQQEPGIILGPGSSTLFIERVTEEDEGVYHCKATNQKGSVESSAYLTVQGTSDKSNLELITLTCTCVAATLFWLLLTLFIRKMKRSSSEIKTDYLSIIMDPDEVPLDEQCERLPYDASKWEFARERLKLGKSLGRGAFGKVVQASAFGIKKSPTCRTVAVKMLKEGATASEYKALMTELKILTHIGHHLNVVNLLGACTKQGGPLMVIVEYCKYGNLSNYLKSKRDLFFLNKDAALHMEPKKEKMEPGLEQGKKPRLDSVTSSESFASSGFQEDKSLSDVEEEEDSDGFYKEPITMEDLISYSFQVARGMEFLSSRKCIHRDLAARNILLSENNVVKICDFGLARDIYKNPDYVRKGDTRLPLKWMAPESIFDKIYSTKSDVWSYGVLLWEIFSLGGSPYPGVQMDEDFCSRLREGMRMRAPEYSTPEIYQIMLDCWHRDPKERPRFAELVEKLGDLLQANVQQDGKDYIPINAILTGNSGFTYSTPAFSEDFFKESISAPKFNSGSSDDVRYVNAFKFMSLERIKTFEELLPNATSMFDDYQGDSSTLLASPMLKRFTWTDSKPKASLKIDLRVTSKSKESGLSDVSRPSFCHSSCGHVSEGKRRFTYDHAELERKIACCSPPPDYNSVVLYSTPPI
# Experiment: Inhibition of VEGFR1 using Tyr 04 peptide as substrate at 10 uM after 60 mins by Z'-LYTE assay
Measured inhibition values are reported for all entries that follow.
Property label: inhibition

[
  {
    "Molecular string": "O=C(Nc1ccc(OC(F)(F)F)cc1)c1sccc1NCc1ccccc1[N+](=O)[O-]",
    "Recorded measurement": "< 40%"
  },
  {
    "Molecular string": "Nc1ccc(CNc2ccsc2C(=O)Nc2ccc(OC(F)(F)F)cc2)cc1",
    "Recorded measurement": "< 40%"
  },
  {
    "Molecular string": "CC(=O)Nc1ccc(CNc2ccsc2C(=O)Nc2ccc(OC(F)(F)F)cc2)cc1",
    "Recorded measurement": "< 40%"
  },
  {
    "Molecular string": "O=C(Nc1ccc(OC(F)(F)F)cc1)c1sccc1NCc1cccc(N=C=S)c1",
    "Recorded measurement": "< 40%"
  },
  {
    "Molecular string": "O=C(Nc1ccc(OC(F)(F)F)cc1)c1sccc1NCc1ccc(N=C=S)cc1",
    "Recorded measurement": "< 40%"
  },
  {
    "Molecular string": "CC(=O)Nc1ccccc1CNc1ccsc1C(=O)Nc1ccc(OC(F)(F)F)cc1",
    "Recorded measurement": "< 40%"
  },
  {
    "Molecular string": "O=C(Nc1ccc(OC(F)(F)F)cc1)c1sccc1NCc1ccccc1N=C=S",
    "Recorded measurement": "< 40%"
  },
  {
    "Molecular string": "Nc1ccccc1CNc1ccsc1C(=O)Nc1ccc(OC(F)(F)F)cc1",
    "Recorded measurement": "< 40%"
  },
  {
    "Molecular string": "Nc1cccc(CNc2ccsc2C(=O)Nc2ccc(OC(F)(F)F)cc2)c1",
    "Recorded measurement": "< 40%"
  },
  {
    "Molecular string": "O=C(Nc1ccc(OC(F)(F)F)cc1)c1sccc1NCc1ccc([N+](=O)[O-])cc1",
    "Recorded measurement": "< 40%"
  },
  {
    "Molecular string": "O=C(Nc1ccc(OC(F)(F)F)cc1)c1sccc1NCc1cccc([N+](=O)[O-])c1",
    "Recorded measurement": "< 40%"
  }
]
